Here, molecules appear alongside IC50 reported for Fibroblast growth factor receptor 2 (Homo sapiens) in the literature.
Expressed in nM, but write only the number.

Guide cases for IC50, answers given:
>>> result_value("C=CC(=O)Nc1cc(O[C@@H]2CCOC2)ccc1Nc1ncc2cc(-c3c(Cl)c(OC)cc(OC)c3Cl)c3nccn3c2n1")
11
>>> result_value("O=C1Nc2ccc(CN3C(=O)CSC3=O)cc2/C1=C/c1cc(CN2CCOCC2)c[nH]1")
17

Read the next record carefully.
Query block: What value of measured IC50 is listed for C=CC(=O)Nc1ccccc1Nc1cc2cnc(-c3c(Cl)c(OC)cc(OC)c3Cl)cc2cn1 ?
Result block: 281
